Value source: paper PMC10893103

Assay: pKa determination by CE-pH titration
Format: physicochemical
Settings: 25 mM Na2HPO4 / 25 mM Na2B4O7 buffers, pH 7–10, 25 °C
Kindly state pKa for each of the entries shown.
Response field accepts a number only; no unit should be typed.

Exercise: Could you tell me which pKa is on file for CCCC(C(=O)c1ccc2c(c1)OCO2)N1CCCC1 (racemic) [MDPV] ?
Key: 9

Exercise: Could you tell me which pKa is on file for CNC(C)C(=O)c1ccc(F)cc1 (racemic) [Flephedrone] ?
Key: 8.56

Exercise: Could you tell me which pKa is on file for CNC(C)C(=O)c1ccc(C)cc1 (racemic) [Mephedrone] ?
Key: 8.61

Exercise: Could you tell me which pKa is on file for CCNC(C)C(=O)c1ccc(C)cc1 (racemic) [4-MEC] ?
Key: 8.81

Exercise: Could you tell me which pKa is on file for CCC(NC)C(=O)c1ccc2c(c1)OCO2 (racemic) [Butylone] ?
Key: 8.64

---

Assay: Affinity capillary electrophoresis (ACE), pH 7.4
Conditions: 30 mM phosphate buffer pH 7.4, 25 °C, 15 kV
Kindly state MDPV–CD complex stability constant, Kstab2 (second migrating enantiomer) for each of the entries shown.
Unit M⁻¹ implied. Number only.

Exercise: Could you tell me which MDPV–CD complex stability constant, Kstab2 (second migrating enantiomer) is on file for "OC[C@H]1O[C@@H]2O[C@H]3[C@H](O)[C@@H](O)[C@@H](O[C@H]4[C@H](O)[C@@H](O)[C@@H](O[C@H]5[C@H](O)[C@@H](O)[C@@H](O[C@H]6[C@H](O)[C@@H](O)[C@@H](O[C@H]7[C@H](O)[C@@H](O)[C@@H](O[C@H]1[C@H](O)[C@H]2O)O[C@@H]7CO)O[C@@H]6CO)O[C@@H]5CO)O[C@@H]4CO)O[C@@H]3CO" ?
Key: 50

Exercise: Could you tell me which MDPV–CD complex stability constant, Kstab2 (second migrating enantiomer) is on file for "NC[C@H]1O[C@@H]2O[C@H]3[C@H](O)[C@@H](O)[C@@H](O[C@H]4[C@H](O)[C@@H](O)[C@@H](O[C@H]5[C@H](O)[C@@H](O)[C@@H](O[C@H]6[C@H](O)[C@@H](O)[C@@H](O[C@H]7[C@H](O)[C@@H](O)[C@@H](O[C@H]8[C@H](O)[C@@H](O)[C@@H](O[C@H]1[C@H](O)[C@H]2O)O[C@@H]8CO)O[C@@H]7CO)O[C@@H]6CO)O[C@@H]5CO)O[C@@H]4CO)O[C@@H]3CO" ?
Key: 200

Exercise: Could you tell me which MDPV–CD complex stability constant, Kstab2 (second migrating enantiomer) is on file for OCCCNC[C@H]1O[C@@H]2O[C@H]3[C@H](O)[C@@H](O)[C@@H](O[C@H]4[C@H](O)[C@@H](O)[C@@H](O[C@H]5[C@H](O)[C@@H](O)[C@@H](O[C@H]6[C@H](O)[C@@H](O)[C@@H](O[C@H]7[C@H](O)[C@@H](O)[C@@H](O[C@H]8[C@H](O)[C@@H](O)[C@@H](O[C@H]1[C@H](O)[C@H]2O)O[C@@H]8CO)O[C@@H]7CO)O[C@@H]6CO)O[C@@H]5CO)O[C@@H]4CO)O[C@@H]3CO [HPA-β-CD, mono-6^A-(3-hydroxy)propylamino-β-CD] ?
Key: 570

Exercise: Could you tell me which MDPV–CD complex stability constant, Kstab2 (second migrating enantiomer) is on file for "OC[C@H]1O[C@@H]2O[C@H]3[C@H](O)[C@@H](O)[C@@H](O[C@H]4[C@H](O)[C@@H](O)[C@@H](O[C@H]5[C@H](O)[C@@H](O)[C@@H](O[C@H]6[C@H](O)[C@@H](O)[C@@H](O[C@H]7[C@H](O)[C@@H](O)[C@@H](O[C@H]8[C@H](O)[C@@H](O)[C@@H](O[C@H]1[C@H](O)[C@H]2O)O[C@@H]8CO)O[C@@H]7CO)O[C@@H]6CO)O[C@@H]5CN1CCCC1)O[C@@H]4CO)O[C@@H]3CO" ?
Key: 430
